# target or test system: T1, recombinant human GPC2-His protein (Homo sapiens, UniProt Q8N158)
# T1 construct: His
# T1 sequence (Q8N158 24-554): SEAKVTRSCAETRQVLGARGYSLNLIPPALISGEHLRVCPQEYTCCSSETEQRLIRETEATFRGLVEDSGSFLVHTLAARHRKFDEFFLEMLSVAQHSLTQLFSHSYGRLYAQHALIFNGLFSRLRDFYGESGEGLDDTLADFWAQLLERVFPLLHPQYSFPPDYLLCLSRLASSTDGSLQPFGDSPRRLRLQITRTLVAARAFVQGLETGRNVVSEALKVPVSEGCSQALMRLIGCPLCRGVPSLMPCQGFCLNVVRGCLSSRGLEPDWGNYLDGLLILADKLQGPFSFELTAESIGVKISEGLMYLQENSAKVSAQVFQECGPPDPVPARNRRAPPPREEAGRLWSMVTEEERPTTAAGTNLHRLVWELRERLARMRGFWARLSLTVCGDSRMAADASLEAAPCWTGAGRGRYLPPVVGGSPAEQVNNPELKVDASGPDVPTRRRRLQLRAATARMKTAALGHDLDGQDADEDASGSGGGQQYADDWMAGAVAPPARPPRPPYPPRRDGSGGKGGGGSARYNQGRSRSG
# test: SPR (Biacore T200) affinity of anti-GPC2 VHH-hIgG1Fc
# condition label: 1:1 binding model
property: ka
Give me the value, and tack the unit on after it.

Consider the reported ka for these molecules:
1) AS71529VH6-hIgG1Fc: AS71529VH6 VHH fused to human IgG1Fc fragment (protein, left off: a dimerising Fc or GST, AS71529VH6 VHH fused to human IgG1Fc fragment) EVQLVESGGGLVQPGGSLRLSCAVSEYRYSSRYCMGWFRQAPGKGREGVAAIDSNGSADYVDSVKGRFTISKDNSKNTLYLQMNSLRAEDTAMYYCAADHLAYDCYSGATSVFRYWGQGTLVTVSS    850000 M⁻¹ s⁻¹
2) AS70950VH6-hIgG1Fc: AS70950VH6 VHH fused to human IgG1Fc fragment (protein, left off: a dimerising Fc or GST, AS70950VH6 VHH fused to human IgG1Fc fragment) EVQLVESGGGLVQPGGSLRLSCAISEFTYKNTCVGWFRQAPGKGREGVAAIDSDGNTNYVDSVKGRFTISQDNSKNTVYLQMNSLRAEDTAMYYCAAGAYCGRLLLWIGNYAYWGQGTLVTVSS    390000 M⁻¹ s⁻¹
3) AS79236VH6-hIgG1Fc: AS79236VH6 VHH fused to human IgG1Fc fragment (protein, left off: a dimerising Fc or GST, AS79236VH6 VHH fused to human IgG1Fc fragment) EVQLVESGGGLVQPGGSLRLSCAVSGYTYSSYCMAWFRQAPGKGLEGVASIDAGGRTTYVDSVKGRFTISKDNAKNSLYLQMNSLRAEDTAMYYCAVDVRTRCGGTWDGEAVYFPYWGQGTLVTVSS    530000 M⁻¹ s⁻¹
4) AS72669VH6-hIgG1Fc: AS72669VH6 VHH fused to human IgG1Fc fragment (protein, left off: a dimerising Fc or GST, AS72669VH6 VHH fused to human IgG1Fc fragment) QVQLVESGGGVVQPGGSLRLSCAASRFTYSSYCMGWIRQAPGKGREGVAIFYTGGGRTYYADSVKGRFTISQDNSKNTLYLQMNSLRAEDTAVYYCVAGFYCSGGYWEGDFGYWGQGTLVTVSS    520000 M⁻¹ s⁻¹
5) AS78117VH4-hIgG1Fc: AS78117VH4 VHH fused to human IgG1Fc fragment (protein, left off: a dimerising Fc or GST, AS78117VH4 VHH fused to human IgG1Fc fragment) EVQLVESGGGLVQPGGSLRLSCIVSRYTYATYSMAWFRQAPGKGLEGVSGLDSVGATGYAESVKGRFTISRDNSKNTLYLQMNSLRAEDTAVYYCVVDPASAKVTYGSWSTPSYAYWGQGTLVTVSS    200000 M⁻¹ s⁻¹

Continue with the molecule presented below.
Q: For the molecule AS71529VH6-AS70950VH6-hIgG1Fc: tandem AS71529VH6-AS70950VH6 VHH fused to human IgG1Fc fragment (protein, left off: a dimerising Fc or GST, tandem AS71529VH6-AS70950VH6 VHH fused to human IgG1Fc fragment) EVQLVESGGGLVQPGGSLRLSCAVSEYRYSSRYCMGWFRQAPGKGREGVAAIDSNGSADYVDSVKGRFTISKDNSKNTLYLQMNSLRAEDTAMYYCAADHLAYDCYSGATSVFRYWGQGTLVTVSSGGGGSGGGGSGGGGSEVQLVESGGGLVQPGGSLRLSCAISEFTYKNTCVGWFRQAPGKGREGVAAIDSDGNTNYVDSVKGRFTISQDNSKNTVYLQMNSLRAEDTAMYYCAAGAYCGRLLLWIGNYAYWGQGTLVTVSS , report ka.
Result: 320000 M⁻¹ s⁻¹
